Each record here notes measured solvation free energy, 298 K.
Assay: solvent given as SMILES
Settings: in CCO
Express your answer in kcal/mol, writing the number without its unit.

COc1ccc(C(=O)O)cc1	-12

According to the records, this compound `CCCCCC` displays solvation free energy, 298 K of -3.1

According to the records, this compound `O=c1[nH]c2ccccc2n1C1CCN(CCCC(c2ccc(F)cc2)c2ccc(F)cc2)CC1` displays solvation free energy, 298 K of -26.6

According to the records, this compound `O=[N+]([O-])c1cccc2ccccc12` displays solvation free energy, 298 K of -10.1

According to the records, this compound `CCOC(C)=O` displays solvation free energy, 298 K of -4.06

According to the records, this compound `CCI` displays solvation free energy, 298 K of -3.57

###

Each record here notes measured solvation free energy, 298 K.
Test: solvent given as SMILES
Settings: in CCCCCC
A complete answer gives the number and then names the unit.

Answered examples (3):
Cc1ccc(O)cc1C	-6.89 kcal/mol
Clc1ccc(Cl)c(Cl)c1	-6.98 kcal/mol
Oc1ccc(Cl)cc1Cl	-6.8 kcal/mol

According to the records, this compound `Clc1cccc(Cl)c1Cl` displays solvation free energy, 298 K of -6.92 kcal/mol

###

Assay: solvent given as SMILES
Details: in c1ccccc1
Each record here notes measured solvation free energy, 298 K.
Express your answer in kcal/mol, writing the number without its unit.

According to the records, this molecule `CN(C)C=O` displays solvation free energy, 298 K of -6.19

According to the records, this molecule `CCI` displays solvation free energy, 298 K of -4.32

According to the records, this molecule `CN1CCCC1=O` displays solvation free energy, 298 K of -6.83

According to the records, this molecule `CCCCCC` displays solvation free energy, 298 K of -3.84

According to the records, this molecule `CCCCCCC` displays solvation free energy, 298 K of -4.55

According to the records, this molecule `CC(=O)N(C)C` displays solvation free energy, 298 K of -6.41

According to the records, this molecule `CC(C)=O` displays solvation free energy, 298 K of -3.79

According to the records, this molecule `CCCCC` displays solvation free energy, 298 K of -3.15

###

Each record here notes measured solvation free energy, 298 K.
Assay: solvent given as SMILES
Conditions: in CN1CCN(C)C1=O

Answered examples (4):
CC(=O)CC(C)C	-4.91 kcal/mol
CCCCCC	-2.51 kcal/mol
CCCCC	-1.88 kcal/mol
CCOC(C)=O	-3.98 kcal/mol

Turning now to a further record.
According to the records, this molecule `CC(C)=O` displays solvation free energy, 298 K of -3.61 kcal/mol

###

Test: solvent given as SMILES
Conditions: in CCC(C)=O
Each record here notes measured solvation free energy, 298 K.
Express your answer in kJ/mol, writing the number without its unit.

According to the records, this compound `c1cc2ccc3cccc4ccc(c1)c2c34` displays solvation free energy, 298 K of -54.2

###

Experiment: solvent given as SMILES
Conditions: in CO
property label: solvation free energy, 298 K (kcal/mol)
Express your answer in kcal/mol, writing the number without its unit.

Answered examples (3):
CCc1ccccc1	-4.86
O=C(Oc1ccccc1)Oc1ccccc1	-11.8
Cc1cc(C)c(C)cc1C	-6.18

According to the records, this molecule `FC(F)(F)F` displays solvation free energy, 298 K of 1

According to the records, this molecule `[N]=O` displays solvation free energy, 298 K of 0.62

According to the records, this molecule `CC(C)c1ccccc1` displays solvation free energy, 298 K of -5.18

According to the records, this molecule `O=c1[nH]c2ccccc2n1C1CCN(CCCC(c2ccc(F)cc2)c2ccc(F)cc2)CC1` displays solvation free energy, 298 K of -26.6

According to the records, this molecule `c1ccc2cc3ccccc3cc2c1` displays solvation free energy, 298 K of -9.89

###

Each record here notes measured solvation free energy, 298 K.
Experiment: solvent given as SMILES
Conditions: in C1CCCCC1
Express your answer in kcal/mol, writing the number without its unit.

C1CCNC1	-4.19
CCCCCCCC	-5.54
CCCCCCCCC	-6.23

Turning now to a further record.
According to the records, this compound `CCc1ccc2c(c1)C(=O)c1ccccc1C2=O` displays solvation free energy, 298 K of -12.2

###

Test: solvent given as SMILES
Conditions: in CC(C)CC(C)(C)C
property label: solvation free energy, 298 K
A complete answer gives the number and then names the unit.

Answered examples (3):
Oc1ccc2ccccc2c1	-8.21 kcal/mol
CCC(C)(C)OC	-4.24 kcal/mol
CCCCC	-3.24 kcal/mol

According to the records, this compound `CC(C)C(C)C(C)C` displays solvation free energy, 298 K of -4.9 kcal/mol

According to the records, this compound `O=S(=O)(c1ccccc1)c1ccccc1` displays solvation free energy, 298 K of -11.6 kcal/mol

According to the records, this compound `CCCCN(C)N=O` displays solvation free energy, 298 K of -5.73 kcal/mol

###

Assay: solvent given as SMILES
Settings: in CCCCCCCCCCCCCCCC
property label: solvation free energy, 298 K (kcal/mol)
Express your answer in kcal/mol, writing the number without its unit.

Answered examples (3):
CCCCC#N	-4.01
c1ccncc1	-4.04
Cc1cccc(O)c1	-5.73

According to the records, this molecule `C1CCOCC1` displays solvation free energy, 298 K of -3.89

###

Assay: solvent given as SMILES
Conditions: in O
Entry flag: Condition met if solvation free energy, 298 K reaches -6 kcal/mol; Condition not met if it does not.

Oc1ccc(F)cc1	Condition not met

Does `Cc1cc(NS(=O)(=O)c2ccc(N)cc2)nc(C)n1` have a reported solvation free energy, 298 K of at least -6 kcal/mol? Condition not met

Does `CC(=O)C(C)(C)C` have a reported solvation free energy, 298 K of at least -6 kcal/mol? Condition met

Does `Clc1cc(Cl)c(-c2ccc(Cl)c(Cl)c2Cl)cc1Cl` have a reported solvation free energy, 298 K of at least -6 kcal/mol? Condition met

Does `Clc1cc(Cl)c(-c2c(Cl)cc(Cl)cc2Cl)c(Cl)c1` have a reported solvation free energy, 298 K of at least -6 kcal/mol? Condition met

Does `Cc1cc(=O)n(-c2ccccc2)n1C` have a reported solvation free energy, 298 K of at least -6 kcal/mol? Condition not met

Does `CCCCCCCCCCCCCCCCCCCCCC` have a reported solvation free energy, 298 K of at least -6 kcal/mol? Condition met

Does `O=Cc1ccccc1` have a reported solvation free energy, 298 K of at least -6 kcal/mol? Condition met

Does `CCCCCCNCc1ccc(C)cc1` have a reported solvation free energy, 298 K of at least -6 kcal/mol? Condition met

###

Assay: solvent given as SMILES
Settings: in NC=O
property label: solvation free energy, 298 K (kcal/mol)
Express your answer in kcal/mol, writing the number without its unit.

Answered examples (8):
O=C(O)Cc1ccccc1Nc1c(Cl)cccc1Cl	-17.8
C[N+](=O)[O-]	-4.73
CCCCC	-0.44
CCCCCCC	-0.97
CCOC(C)=O	-3.61
CCCCCC	-0.53
CCCCCCCC	-1.27
CCCCCCCC(C)=O	-5.43

According to the records, this molecule `CC(=O)CC(C)C` displays solvation free energy, 298 K of -4.19

According to the records, this molecule `CCCCC(C)=O` displays solvation free energy, 298 K of -4.46

According to the records, this molecule `CC#N` displays solvation free energy, 298 K of -4.37

According to the records, this molecule `CCc1ccccc1` displays solvation free energy, 298 K of -3.26

###

Each record here notes measured solvation free energy, 298 K.
Experiment: solvent given as SMILES
Conditions: in CC1COC(=O)O1
A complete answer gives the number and then names the unit.

Answered examples (3):
C[N+](=O)[O-]	-5.38 kcal/mol
CC(C)CCC(C)C	-2.64 kcal/mol
C=CC	-0.97 kcal/mol

According to the records, this compound `CCO` displays solvation free energy, 298 K of -4.2 kcal/mol

###

Experiment: solvent given as SMILES
Conditions: in CCCCCCCC
Entry flag: MET if solvation free energy, 298 K reaches -4 kcal/mol; NOT MET if it does not.

Does `CCCCl` have a reported solvation free energy, 298 K of at least -4 kcal/mol? MET

Does `Oc1cccc2ccccc12` have a reported solvation free energy, 298 K of at least -4 kcal/mol? NOT MET

Does `CI` have a reported solvation free energy, 298 K of at least -4 kcal/mol? MET

###

Test: solvent given as SMILES
Details: in CCCO
property label: solvation free energy, 298 K (kcal/mol)
Express your answer in kcal/mol, writing the number without its unit.

CCCCCCCCC	-4.94

According to the records, this compound `O=C(O)CCC(=O)O` displays solvation free energy, 298 K of -12.2

According to the records, this compound `O=[N+]([O-])c1cccc2ccccc12` displays solvation free energy, 298 K of -9.99

According to the records, this compound `CC(F)F` displays solvation free energy, 298 K of -1.49

According to the records, this compound `Cc1cc(C)c(C)cc1C` displays solvation free energy, 298 K of -6.54

According to the records, this compound `NC(=O)c1ccccc1O` displays solvation free energy, 298 K of -12.3

According to the records, this compound `c1ccc2cc3ccccc3cc2c1` displays solvation free energy, 298 K of -10

According to the records, this compound `O=[N+]([O-])c1ccc(Cl)c(Cl)c1` displays solvation free energy, 298 K of -8.26

According to the records, this compound `O=C(O)c1cc([N+](=O)[O-])ccc1Cl` displays solvation free energy, 298 K of -13

According to the records, this compound `C1CC1` displays solvation free energy, 298 K of -1.57

According to the records, this compound `FC(F)(F)F` displays solvation free energy, 298 K of 1.04

According to the records, this compound `O=C(Oc1ccccc1)Oc1ccccc1` displays solvation free energy, 298 K of -11.5

According to the records, this compound `COc1ccc(C(=O)O)cc1` displays solvation free energy, 298 K of -11.8
